Molecular target: GST-TIAM1 PDZ domain fusion protein (T-lymphoma invasion and metastasis inducing protein 1 AA1001-1088); PDZ 1 … (UniProt P08515 1-218 = GST)
Sequence (P08515 1-218, tags or fused parts left off): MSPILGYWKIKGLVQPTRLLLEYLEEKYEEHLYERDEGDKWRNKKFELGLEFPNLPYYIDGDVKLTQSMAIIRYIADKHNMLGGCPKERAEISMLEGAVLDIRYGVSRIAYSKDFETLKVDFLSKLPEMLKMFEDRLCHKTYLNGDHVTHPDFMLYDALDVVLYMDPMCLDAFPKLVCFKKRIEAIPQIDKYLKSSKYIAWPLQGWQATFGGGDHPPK
Experiment: A/G assays
Ends that are not written are not given here. * marks the point of attachment. Biotin = O=C1N[C@H]2[C@H](CS[C@H]2CCCCC(=O)*)N1
READOUT_TYPE: binding result

Recorded binding result, per entry:
Biotin-QATSRNGHSARQHVVADTEL [CD34 C-terminal PL peptide AA7L, biotinylated] : no binding
Biotin-YSATYSELEDPGEMSPPIDL (also called Fc epsilon receptor beta I chain) [FceRIb C-terminal PL peptide AA25L, biotinylated] : no binding
Biotin-SSKSKSSEESQTFFGLYKL [FasLigand C-terminal PL peptide AA23L-M, biotinylated] : no binding
Biotin-AWDDSARAAGGQGLHVTAL [LPAP C-terminal PL peptide AA30L, biotinylated] : no binding
Biotin-ENLAPVTTFGKTNGYIA [CD148 (DEP-1) C-terminal PL peptide AA19L (ends GYIA), biotinylated] : no binding

q: Specify reported binding result for the binder shown: Biotin-SPQPDSTDNDDYDDISAA [CD6 C-terminal PL peptide AA6L, biotinylated]
a: no binding

q: Please list binding result recorded for the binder Biotin-ISKATPALPTVSISSSAEV (also called AA1L-R) [CLASP-1 C-terminal PL peptide AA1L, biotinylated]
a: no binding

q: Quote binding result reported for Biotin-QGDPALQDAGDSSRKEYFI (also called GC) [Glycophorin C C-terminal PL peptide AA37L, biotinylated] please.
a: no binding
